# credit: PubChem BioAssay (NCATS)

- EXPERIMENT_SUMMARY: qHTS Screen of the MIPE 4.0 Collection Against Ewings Sarcoma (TC71) (AID 1259253); further: nearly all actives have a fitted effect of over 40% in size
- TEST_CONTEXT: TC71 Ewing sarcoma viability, CellTiter-Glo, 48 h; series mostly up to 45.8 µM
Results filed as inconclusive are left out. The source made the active and inactive calls. The call rests on the fitted dose curve; in most records, active means well fitted inhibition curve with a large enough effect; inconclusive means small, poorly fitted or top-dose-only effect; inactive means no such curve, though single readings can be large or run the other way.
Labels: True = active, False = inactive

COMPOUND: O=c1[nH]c(=O)n([C@H]2C[C@@H](O)[C@@H](CO)O2)cc1I
GROUP: True

COMPOUND: COc1cc2c(cc1Cc1cccc(Cl)c1F)c(=O)c(C(=O)O)cn2[C@H](CO)C(C)C
GROUP: True

COMPOUND: NC(=O)c1ncn([C@@H]2O[C@H](CO)[C@@H](O)[C@@H]2O)n1
GROUP: False

COMPOUND: C[C@@H](O)[C@H]1C(=O)N2C(C(=O)OCOC(=O)C(C)(C)C)=C(SC3CN(C4=NCCS4)C3)[C@H](C)[C@H]12
GROUP: False

COMPOUND: COc1ccc(CCC(=O)Nc2nc3ccc(Cl)cc3s2)cc1OC
GROUP: True

COMPOUND: CC(=O)OCC(=O)[C@@]1(O)CC[C@H]2[C@@H]3CCC4=CC(=O)C=C[C@]4(C)[C@@H]3[C@@H](O)C[C@@]21C
GROUP: True

COMPOUND: CNc1nc(-c2ccc3c(N)n[nH]c3c2)cc(N2C[C@@H](C(=O)NC3CCCCC3)CC[C@@H]2C)n1
GROUP: True

COMPOUND: COc1c(C)c2c(c(O)c1CC=C(C)CCC(=O)O)C(=O)OC2
GROUP: True

COMPOUND: O=C(Nc1cccc(C(F)(F)F)c1)Nc1cc(S(=O)(=O)NC2CC2)ccc1-c1ccsc1
GROUP: True

COMPOUND: Cc1cc(NC(=O)Nc2ccc(N(C)C)cc2)c2cc(F)cc(F)c2n1
GROUP: False

COMPOUND: Cc1ccccc1C(=O)c1ccc(Nc2ccc(Br)cc2N)cc1Cl
GROUP: True

COMPOUND: CC[C@@H]([C@H](C)O)n1ncn(-c2ccc(N3CCN(c4ccc(OCC5CO[C@@](Cn6cncn6)(c6ccc(F)cc6F)C5)cc4)CC3)cc2)c1=O (some centres undefined)
GROUP: False

COMPOUND: COc1ccc(-c2oc3c(CC=C(C)C)c(O)cc(O)c3c(=O)c2O)cc1
GROUP: True

COMPOUND: COc1ccc(-c2cc3nccn3c(Nc3ncccc3C(N)=O)n2)cc1OC
GROUP: True

COMPOUND: CCCCC(C)(C)[C@H](O)C=C[C@H]1[C@H](O)CC(=O)[C@H]1CC=CCCCC(=O)O
GROUP: True

COMPOUND: Cc1ccc2c(c1)C(=O)[C@]1(O)CCN(c3ccccc3)C1=N2
GROUP: True

COMPOUND: CCn1c(-c2nonc2N)nc2cncc(CNC3CCNCC3)c21
GROUP: False

COMPOUND: CC[C@H](C=C[C@@H](C)[C@H]1CC[C@H]2[C@@H]3CC=C4C[C@@H](O)CC[C@]4(C)[C@@H]3CC[C@]12C)C(C)C
GROUP: False

COMPOUND: CN(C(Cc1ccc(OS(=O)(=O)c2cccc3cnccc23)cc1)C(=O)N1CCN(c2ccccc2)CC1)S(=O)(=O)c1cccc2cnccc12 (centres undefined)
GROUP: True

COMPOUND: CC1(C)C(N(O)C(=O)Nc2ccc(Cl)cc2)N(c2ccc(Cl)cc2)C(=O)N1CC(=O)NN=CC=Cc1ccc([N+](=O)[O-])o1 (centres undefined)
GROUP: True

COMPOUND: C[C@@H]1[C@H](C)CC[C@]2(C(=O)O)CC[C@]3(C)C(=CC[C@@H]4[C@@]5(C)CC[C@H](O)C(C)(C)[C@H]5CC[C@]43C)[C@@H]12
GROUP: True

COMPOUND: O=S(=O)(O)c1ccc2cc(N=Nc3cc(S(=O)(=O)O)c4cccnc4c3O)ccc2c1
GROUP: True

COMPOUND: Cc1cc(CS(=O)(=O)c2ccccc2)cc(OCc2ccc(CN3CCC[C@H]3CO)cc2)c1
GROUP: True

COMPOUND: COC(=O)N1CCN(Cc2cccc(NC(=O)Nc3ccc(C)nc3)c2F)CC1
GROUP: True

COMPOUND: N#Cc1c(N(CC(=O)O)CC(=O)O)sc(C(=O)O)c1CC(=O)O
GROUP: False

COMPOUND: Oc1cc(O)cc(C=Cc2ccc(O)c(O)c2)c1
GROUP: True

COMPOUND: NC(=O)c1noc([C@H](CCCC2CCCCC2)CC(=O)NO)n1
GROUP: True

COMPOUND: C[C@@]1(c2cc(-c3cncnc3)c(F)cc2F)CCSC(N)=N1
GROUP: False

COMPOUND: C#C[C@]1(O)CC[C@H]2[C@H]3CCc4cc(OC)ccc4[C@H]3CC[C@@]21C
GROUP: True

COMPOUND: CN(C)CC[C@H](CSc1ccccc1)Nc1ccc(S(=O)(=O)NC(=O)c2ccc(N3CCN(Cc4ccccc4-c4ccc(Cl)cc4)CC3)cc2)cc1[N+](=O)[O-]
GROUP: True

COMPOUND: CN(C)S(=O)(=O)c1ccc2c(c1)C(=Cc1cc3c([nH]1)CCCC3)C(=O)N2
GROUP: True

COMPOUND: COc1cc([C@H]2Oc3cc([C@H]4Oc5cc(O)cc(O)c5C(=O)[C@H]4O)ccc3O[C@H]2CO)ccc1O
GROUP: True

COMPOUND: O=C(Nc1ccc(OC(F)(F)F)cc1)c1sccc1NCc1ccnc2ccccc12
GROUP: True

COMPOUND: C[C@@H]1O[C@@H](O[C@H]2CC[C@@]3(C)[C@H](CC[C@@H]4[C@H]3C[C@@H](O)[C@]3(C)[C@@H](C5=CC(=O)OC5)CC[C@]43O)C2)C[C@H](O)[C@@H]1O[C@H]1C[C@H](O)[C@H](O[C@H]2C[C@H](O)[C@@H](O)[C@@H](C)O2)[C@H](C)O1 (stereo in doubt)
GROUP: True
